- assay_target: GST-β-catenin, full length (UniProt P35222 P35222:1-781)
- Sequence (P35222 whole entry, one chain of several): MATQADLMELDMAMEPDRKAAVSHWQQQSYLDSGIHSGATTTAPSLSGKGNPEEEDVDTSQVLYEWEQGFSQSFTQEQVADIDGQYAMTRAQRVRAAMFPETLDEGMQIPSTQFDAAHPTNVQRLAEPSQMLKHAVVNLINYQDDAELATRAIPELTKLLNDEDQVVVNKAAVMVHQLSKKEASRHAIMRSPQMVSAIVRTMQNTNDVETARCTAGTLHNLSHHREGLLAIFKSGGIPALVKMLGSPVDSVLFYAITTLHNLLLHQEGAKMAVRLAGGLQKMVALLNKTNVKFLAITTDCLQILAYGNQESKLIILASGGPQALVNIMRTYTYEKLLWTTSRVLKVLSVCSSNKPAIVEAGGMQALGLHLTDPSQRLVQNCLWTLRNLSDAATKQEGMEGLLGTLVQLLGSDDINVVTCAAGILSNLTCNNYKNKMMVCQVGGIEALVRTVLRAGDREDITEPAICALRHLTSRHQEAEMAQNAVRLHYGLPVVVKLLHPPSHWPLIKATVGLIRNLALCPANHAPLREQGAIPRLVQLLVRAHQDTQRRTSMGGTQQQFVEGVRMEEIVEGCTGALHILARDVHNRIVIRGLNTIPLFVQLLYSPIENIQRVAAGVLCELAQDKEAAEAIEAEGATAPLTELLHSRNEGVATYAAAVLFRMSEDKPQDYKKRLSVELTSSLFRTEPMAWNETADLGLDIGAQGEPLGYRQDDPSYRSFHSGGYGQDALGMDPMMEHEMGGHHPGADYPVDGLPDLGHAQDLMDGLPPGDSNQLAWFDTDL
- run_description: EMSA; stated as binding affinity for full length β-catenin
- assay_context: tags: GST fusion, E. coli; label: 32P (radiolabelled)
pKd: −log10 of the molar value.

| binder | pKd |
| --- | --- |
| β-catenin RNA aptamer (ssRNA) RNA: GGACGCGUGGUACCAGGCCGAUCUAUGGACGCUAUAGGCACACCGGAUACUUUAACGAUUGGCUAAGCUUCCGCGGGGAUC | 8.30 |

Where these numbers come from: patent US7999089
